assayed_target: FLAG-tagged wild-type human angiotensin II type I receptor (FLAG-AT1R) (Homo sapiens, UniProt P30556)
Sequence (P30556 whole entry): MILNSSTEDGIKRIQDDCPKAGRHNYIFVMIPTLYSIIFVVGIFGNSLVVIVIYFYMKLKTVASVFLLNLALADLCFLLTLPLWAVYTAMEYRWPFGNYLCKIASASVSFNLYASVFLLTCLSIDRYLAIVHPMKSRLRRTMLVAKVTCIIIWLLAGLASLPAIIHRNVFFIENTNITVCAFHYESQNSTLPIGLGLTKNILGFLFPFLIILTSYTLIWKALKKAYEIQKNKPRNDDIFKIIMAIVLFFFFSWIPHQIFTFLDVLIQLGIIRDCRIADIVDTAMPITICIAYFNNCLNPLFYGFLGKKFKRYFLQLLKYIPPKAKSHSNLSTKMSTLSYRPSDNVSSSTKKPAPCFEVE
measurement_label: binding result

AT201 (VHH) VHH: QVQLQESGGGLVQAGGSLRLSCAASGTISDPPYMGWYRQAPGKERELVAAIDVGANTYYADSVKGRFTISRDNAKNTVYLQMNSLKPEDTAVYYCAVEYDAQVPHQYWGQGTQVTVSS; binds
AT203 (VHH) VHH: QVQLQESGGLVQAGGSLRLSCAASGYISRSYDMGWYRQAPGKERELVASINEGSTTNYADSVKGRFTISRDNAKNTVYLQMNSLKPEDTAVYYCAAYTYGHGDYHVYWGQGTQVTVSS; binds
